# Test system: human red blood cells (RBCs)
# METHOD_DESCRIPTION: Hemolysis assay
# Type: cell-based
# ASSAY_CONDITIONS: red cells of human, 1 h, 64
Where a SMILES comes first, the peptide text is derived from it.
MEASUREMENT_NAME: Percentage of hemolysis at 64 μg/mL (%)

{"columns": ["MOLECULE", "RESULT_VALUE"],
 "data": [
  ["CC[C@H](C)[C@H](NC(=O)[C@H](CCCCN)NC(=O)[C@H](CCCCN)NC(=O)[C@@H](NC(=O)[C@@H](NC(=O)[C@H](CC(=O)O)NC(=O)[C@H](Cc1ccccc1)NC(=O)[C@H](CC(C)C)NC(=O)CN)[C@@H](C)CC)[C@@H](C)CC)C(=O)N[C@@H](C)C(=O)N[C@@H](C)C(=O)N[C@@H](CO)C(=O)N[C@@H](Cc1ccccc1)C(N)=O [Peptide E11A] (H-GLFDIIKKIAASF-NH2)", 2.9],
  ["CC[C@H](C)[C@H](NC(=O)[C@H](CCCCN)NC(=O)[C@H](CCCCN)NC(=O)[C@@H](NC(=O)[C@@H](NC(=O)[C@H](CC(=O)O)NC(=O)[C@H](Cc1ccccc1)NC(=O)[C@H](CC(C)C)NC(=O)CN)[C@@H](C)CC)[C@@H](C)CC)C(=O)N[C@@H](C)C(=O)N[C@@H](CCC(=O)O)C(=O)N[C@@H](C)C(=O)N[C@@H](Cc1ccccc1)C(N)=O [Peptide S12A] (H-GLFDIIKKIAEAF-NH2)", 12.0],
  ["CC[C@H](C)[C@H](NC(=O)[C@H](CCCCN)NC(=O)[C@H](CCCCN)NC(=O)[C@@H](NC(=O)[C@@H](NC(=O)[C@H](CC(=O)O)NC(=O)[C@H](Cc1ccccc1)NC(=O)[C@H](C)NC(=O)CN)[C@@H](C)CC)[C@@H](C)CC)C(=O)N[C@@H](C)C(=O)N[C@@H](CCC(=O)O)C(=O)N[C@@H](CO)C(=O)N[C@@H](Cc1ccccc1)C(N)=O [Peptide L2A] (H-GAFDIIKKIAESF-NH2)", 0.0]
]}
